# ASSAY_SYSTEM: T1, mStau2 dsRBD1-4 (Mus musculus, UniProt Q8CJ67 8-375)
# T1 sequence: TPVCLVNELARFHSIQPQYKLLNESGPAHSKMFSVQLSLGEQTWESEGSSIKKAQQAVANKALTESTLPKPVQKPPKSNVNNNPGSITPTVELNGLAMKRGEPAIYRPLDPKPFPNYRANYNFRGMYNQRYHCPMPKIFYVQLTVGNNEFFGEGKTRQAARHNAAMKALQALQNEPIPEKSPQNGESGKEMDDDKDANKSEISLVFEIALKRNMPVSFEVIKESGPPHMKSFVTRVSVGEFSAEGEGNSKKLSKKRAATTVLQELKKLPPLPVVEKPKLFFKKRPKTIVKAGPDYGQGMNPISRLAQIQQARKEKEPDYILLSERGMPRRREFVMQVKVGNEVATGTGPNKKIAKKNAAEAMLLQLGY
# PROTOCOL_NOTES: SPR; Hill n 1.6; text says 357 nM; SPR: HBS-EP (10 mM HEPES pH 7.4, 150 mM NaCl, 3 mM EDTA, 0.005% P20); EMSA: 5 nM RNA, protein buffer (40 mM Bis-Tris pH 7, 150 mM NaCl, 2 mM DTT presumed), 4% glycerol, 30 ug/mL yeast tRNA, RT; NMR: 150 mM NaCl, 20 mM Na phosphate pH 7.0, 5 mM DTT, 298 K
# RUN_CONDITIONS: protein: recombinant; tags: HisSUMO removed; label: 5' 32P (EMSA); biotin (SPR); hairpin, 18 bp stem
MEASURE_NAME: Kd (nM)

binder="GGUAUAUACAUGCACAUGCAAUUUGUGUAUGUGUAUGUAUAUA (structured_RNA) [SRS2+5]" val=330
